- Tested on: L1210 leukemia ip in BDF1 mice, survival T/C
- assay.summary: NCI In Vivo Anticancer Drug Screen. Data for tumor model L1210 Leukemia (intraperitoneal) in B6D2F1 (BDF1) mice
- assay.setup: endpoint: mean survival time; dose: 75.0 mg/kg/injection; schedule: Q01DX009 (ip); vehicle: saline; higher = longer survival
Inconclusive results and toxic doses are left out.
// reported T/C per item

The value of T/C measured for the molecule OC1C#CCCCCC(O)C#CCCCC1 (centres undefined) turned out to be 97 % of control

Lab book: T/C of `CN(CCOS(=O)(=O)O)CCOS(=O)(=O)O` noted as 98 % of control

Record summary for OC(CF)C(O)C(O)C(O)CF (centres undefined) : reported T/C = 95 % of control

Attention now turns to another entry.
For `C=CCN(CC=C)P(N(CC=C)CC=C)N(CC=C)CC=C` the molecule record lists T/C as 98 % of control

###

- Test system: L1210 leukemia ip in BDF1 mice, survival T/C
- assay.summary: NCI In Vivo Anticancer Drug Screen. Data for tumor model L1210 Leukemia (intraperitoneal) in B6D2F1 (BDF1) mice
- assay.setup: endpoint: mean survival time; dose: 300.0 mg/kg/injection; schedule: Q01DX009 (ip); vehicle: Klucel (hydroxypropylcellulose) (HPC); higher = longer survival
Inconclusive results and toxic doses are left out.
This listing pairs compounds with measured T/C.

Sample records with T/C:
Data point: `c1ccc(CCNc2ccc(NCCc3ccccc3)cc2)cc1` ; T/C = 106 % of control

So, `O=S(=O)(C/C=C/COc1ccccc1)c1ccc2ccccc2c1` ? Its T/C was 98 % of control

T/C measured on `O=c1[nH]c(=O)n([C@H]2CCCO2)cc1F` = 114 % of control

In plain terms, `CCCCCCCCN(C)N=Nc1ccc(C(=O)O)cc1` has a documented T/C of 98 % of control

Let us examine a further case.
Kindly note the recorded T/C for `COc1cc(C(=O)N/N=C/N(C)C)cc(OC)c1OC` , which is 89 % of control

###

- System: L1210 leukemia ip in BDF1 mice, survival T/C
- assay.summary: NCI In Vivo Anticancer Drug Screen. Data for tumor model L1210 Leukemia (intraperitoneal) in B6D2F1 (BDF1) mice
- assay.setup: endpoint: mean survival time; dose: 400.0 mg/kg/injection; schedule: Q01DX001 (ip); vehicle: carboxymethylcellulose (CMC); higher = longer survival
- Method: The antitumor activity of compounds was measured in mice bearing transplantable tumors. Survival or tumor size were measured and the results are expressed as the measurement made in the treated group (T) divided by the measurement made in the vehicle treated control group (C). The tumor model used in this assay is L1210 Leukemia (intraperitoneal) in B6D2F1 (BDF1) mice
Inconclusive results and toxic doses are left out.
# T/C listing for each entry below

Worked examples follow.
Value of T/C reported for the molecule `Cc1cccc(NC(=O)NCCO)c1` is 97 % of control

Entry under test: `Cc1nc(N)[nH]c(=O)c1/C=C\C(=O)c1ccccc1` . Its T/C was 93 % of control

Just so you know, measured T/C for `O=NN(CCCl)C(=O)Nc1cc(Cl)ccc1O` came out at 116 % of control

Moving on to another molecule below.
According to the records, this molecule `O=C(Nc1ccc([N+](=O)[O-])cc1)N(c1ccccn1)c1ccccn1` displays T/C of 95 % of control

###

- System: L1210 leukemia ip in BDF1 mice, survival T/C
- assay.summary: NCI In Vivo Anticancer Drug Screen. Data for tumor model L1210 Leukemia (intraperitoneal) in B6D2F1 (BDF1) mice
- assay.setup: endpoint: mean survival time; dose: 100.0 mg/kg/injection; schedule: Q01DX001 (ip); vehicle: steriod suspending solution; higher = longer survival
Toxic doses and inconclusive results are not listed.
experimental.readout: T/C

Worked examples, 4 compounds total:
Entry Cc1ccc(S(=O)(=O)OC2CCCCC2c2ccccc2C)cc1 (stereo not given) ; T/C = 105 % of control

So, `O=C(Nc1ccccc1)c1nccc2ccccc12` ? Its T/C was 117 % of control

Per the records, this compound ( `CCN(CC)C(=S)[S][Sb]([c]1ccccc1)[c]1ccccc1` ) has T/C equal to 110 % of control

`CCN(CC)C(=S)[S][Pb]([S]C(=S)N(CC)CC)([c]1ccccc1)[c]1ccccc1` yielded T/C of 97 % of control

Now consider the entry below.
// sample `Cc1ccc2[c](c1)[Sn]([c]1ccccc1)([c]1ccccc1)[c]1cc(C)ccc1N2C` , its T/C was 96 % of control

###

- System: L1210 leukemia ip in BDF1 mice, survival T/C
- assay.summary: NCI In Vivo Anticancer Drug Screen. Data for tumor model L1210 Leukemia (intraperitoneal) in B6D2F1 (BDF1) mice
- assay.setup: endpoint: mean survival time; dose: 200.0 mg/kg/injection; schedule: Q01DX001 (ip); vehicle: saline; higher = longer survival
Toxic doses and inconclusive results are not listed.
Measured T/C by item

Some compounds with known T/C results, for comparison:
Consider `O=C(Sc1n[nH]c(=O)[nH]c1=O)c1ccccc1` . Its measured T/C is 107 % of control

Per the records, this compound ( `CSCCc1ccccn1` ) has T/C equal to 98 % of control

Entry CC(N)C(=O)O (stereo not drawn) , T/C reported as 96 % of control

The value of T/C measured for the compound `O=C1C(=O)c2ccccc2C(O)=C1Nc1ccc(Cl)cc1` turned out to be 93 % of control

// recorded T/C for `COc1ccc(-c2nc(N)nc3c2CN(CCC(=O)O)C3=O)cc1` : 95 % of control

Now for the compound whose T/C we want.
Value of T/C reported for the compound `CC(C)=Nc1cccc(B(O)O)c1` is 88 % of control

###

- System: L1210 leukemia ip in BDF1 mice, survival T/C
- assay.summary: NCI In Vivo Anticancer Drug Screen. Data for tumor model L1210 Leukemia (intraperitoneal) in B6D2F1 (BDF1) mice
- assay.setup: endpoint: mean survival time; dose: 200.0 mg/kg/injection; schedule: Q01DX009 (ip); vehicle: gum acacia; higher = longer survival
- Method: The antitumor activity of compounds was measured in mice bearing transplantable tumors. Survival or tumor size were measured and the results are expressed as the measurement made in the treated group (T) divided by the measurement made in the vehicle treated control group (C). The tumor model used in this assay is L1210 Leukemia (intraperitoneal) in B6D2F1 (BDF1) mice
Inconclusive results and toxic doses are left out.
experimental.readout: T/C

// recorded T/C for `N#Cc1cc(Cl)ccc1Cl` : 103 % of control

---
Recorded result, `O=C(Nc1ccccc1F)N1CCCCC1` , T/C: 97 % of control

Query `CCCCCCCCCCCCCCCCCCNC(=O)Nc1c(C)cc(C)cc1C` yields T/C of 87 % of control

// sample `NC(=S)Nc1cccc(O)c1` , its T/C was 87 % of control

###

As shown below, each of these compounds has a reported T/C value.
- Tested on: L1210 leukemia ip in BDF1 mice, survival T/C
- assay.summary: NCI In Vivo Anticancer Drug Screen. Data for tumor model L1210 Leukemia (intraperitoneal) in B6D2F1 (BDF1) mice
- assay.setup: endpoint: mean survival time; dose: 100.0 mg/kg/injection; schedule: Q04DX002 (ip); vehicle: saline; higher = longer survival
Inconclusive results and toxic doses are left out.

Take a look at these entries with their results.
Recorded result, `CC12CCC(Cl)(CC1)CC2=O` , T/C: 95 % of control

Query `CN(C)CCSCCO` yields T/C of 107 % of control

Per the records, this compound ( `Cc1cc(=O)[nH]c(/N=C(\N)Nc2ccc(Cl)cc2)n1` ) has T/C equal to 93 % of control

For the next question, use this compound.
Briefly, T/C measured for `COC(=O)c1ccc[n+](C)c1` : 104 % of control

###

- Test system: L1210 leukemia ip in BDF1 mice, survival T/C
- assay.summary: NCI In Vivo Anticancer Drug Screen. Data for tumor model L1210 Leukemia (intraperitoneal) in B6D2F1 (BDF1) mice
- assay.setup: endpoint: mean survival time; dose: 100.0 mg/kg/injection; schedule: Q01DX001 (ip); vehicle: carboxymethylcellulose (CMC); higher = longer survival
Inconclusive results and toxic doses are left out.
experimental.readout: T/C

See these solved cases before continuing.
Summary for this compound, `O=C(COc1cccc(Cl)c1)Nc1cccc(NC(=O)c2cccc(S(=O)(=O)F)c2)c1` : T/C is 88 % of control

The value of T/C measured for the compound `Cc1cccc(N=Cc2ccccc2O)c1` turned out to be 95 % of control

Note to self: T/C recorded for `Clc1ccc(Cc2ccc(Cl)cc2)cc1` was 107 % of control

Documented T/C of CC1([N+](=O)[O-])COP(=O)(O)OC1 (stereo not given) (tested in a mixture with another compound) : 109 % of control

The reported T/C of the compound O=C1c2ccccc2C(O)(O)C1(O)C1(O)C(=O)c2ccccc2C1(O)O (stereo not given) was 109 % of control

More entries:
// field: T/C; key: `O=C1c2cccnc2C(=O)c2c(O)ccc(O)c21` ; value = 108 % of control

// recorded T/C for `N#CC1(N(O)C(=O)Nc2ccccc2Cl)CCCCC1` : 100 % of control
